- System: 559 E. faecalis (GSE)
- assay-name: MIC, broth microdilution in Meuller-Hinton broth (NCCLS)
- Type: cell-based, Enterococcus faecalis
- stated-conditions: glycopeptide-sensitive clinical isolate
measured-metric: MIC 559 E. faecalis (GSE) (µg/mL)

1. CCCCN(CCCC)c1ccc(CNCC(=O)NC2(C)CC(OC3C(Oc4c5cc6cc4Oc4ccc(cc4Cl)C(O)C(NC(=O)C(CC(C)C)NC)C(=O)NC(CC(N)=O)C(=O)NC6C(=O)NC4C(=O)NC(C(=O)NC(C(=O)O)c6cc(O)cc(O)c6-c6cc4ccc6O)C(OC4CC(C)(N)C(O)C(C)O4)c4ccc(cc4)O5)OC(CO)C(O)C3O)OC(C)C2O)cc1 (centres unmarked) [Compound 187]; 2
2. CNC(CC(C)C)C(=O)NC1C(=O)NC(CC(N)=O)C(=O)NC2C(=O)NC3C(=O)NC(C(=O)NC(C(=O)O)c4cc(O)cc(O)c4-c4cc3ccc4O)C(OC3CC(C)(N)C(O)C(C)O3)c3ccc(cc3)Oc3cc2cc(c3OC2OC(CO)C(O)C(O)C2OC2CC(C)(NC(=O)CNC(=O)OCC3c4ccccc4-c4ccccc43)C(O)C(C)O2)Oc2ccc(cc2Cl)C1O (centres unmarked) [Compound 221]; 0.5

Taken from patent US7632918B2.
